Provide the recorded inhibition in vivo at 0.1 mg/kg for the entries that follow.
- System: platelet aggregation
- assay protocol: Platelet aggregation inhibitory activity (ex vivo) after oral administration
- Format: in vivo
- cond: Cavia porcellus, guinea pig, oral 0.1 mg/kg, 4 hrs, ADP 10 μg/ml, read-out: platelet aggregation inhibitory rate (%), 4 hrs
Give bare numbers, in %.

Examples with answers:
INSERT INTO results (molecule, result_units, recorded_number) VALUES
  ('N=C(N)c1ccc(OCCCC(=O)NC[C@H](NS(=O)(=O)c2cccc3ccccc23)C(=O)O)cc1 [Example 62]', '%', 56),
  ('N=C(N)c1ccc(C(=O)NCCC(=O)NC[C@H](NS(=O)(=O)c2ccccc2C(F)(F)F)C(=O)O)cc1 [Example 21]', '%', 100),
  ('CN(C)C(=N)c1ccc(C(=O)NCCC(=O)NC[C@H](NS(=O)(=O)c2ccccc2)C(=O)O)cc1 [Example 100]', '%', 100),
  ('N=C(N)c1ccc(OCCCC(=O)NC[C@H](NS(=O)(=O)c2ccc(F)cc2)C(=O)O)cc1 [Example 61]', '%', 48),
  ('CCc1ccc(S(=O)(=O)N[C@@H](CNC(=O)CCCOc2ccc(C(=N)N)cc2)C(=O)O)cc1 [Example 83]', '%', 32);

List the reported inhibition in vivo at 0.1 mg/kg of each molecule below.
1. N=C(N)c1ccc(OCCCCC(=O)NC[C@H](NS(=O)(=O)c2ccccc2[N+](=O)[O-])C(=O)O)cc1 [Example 85]
2. Cc1cc(C)c(S(=O)(=O)N[C@@H](CNC(=O)CCNC(=O)c2ccc(C(=N)N)cc2)C(=O)O)c(C)c1 [Example 19]
3. N=C(N)c1ccc(N2CCC(CC(=O)NC[C@H](NS(=O)(=O)c3ccccc3)C(=O)O)CC2)cc1 [Example 69]
4. COc1ccc(S(=O)(=O)N[C@@H](CNC(=O)CCCCOc2ccc(C(=N)N)cc2)C(=O)O)cc1 [Example 63]
5. N=C(N)c1ccc(C(=O)N2CCCC(C(=O)NC[C@H](NS(=O)(=O)c3ccccc3)C(=O)O)C2)cc1 (stereo partly drawn) [Example 95]
6. N=C(N)c1ccc(C(=O)NCCC(=O)NC[C@H](NS(=O)(=O)c2ccccc2[N+](=O)[O-])C(=O)O)cc1 [Example 77]

*A*
31
89
6
3
12
100

// input: 3 molecules below; output: inhibition in vivo at 0.1 mg/kg for each
1. Cc1ccc(S(=O)(=O)N[C@@H](CNC(=O)CCNC(=O)c2ccc(C(=N)N)cc2)C(=O)O)cc1 [Example 76]
2. Cc1cc(C)c(S(=O)(=O)N[C@@H](CNC(=O)CCCCc2ccc(C(=N)N)cc2)C(=O)O)c(C)c1 [Example 87]
3. N=C(N)c1ccc(OCCCCC(=O)NC[C@H](NS(=O)(=O)c2ccccc2)C(=O)O)cc1 [Example 64]

*A*
100
100
0

*Q* I am curious: what inhibition in vivo at 0.1 mg/kg value has been reported for COc1ccc(S(=O)(=O)N[C@@H](CNC(=O)CC2CCN(c3ccc(C(=N)N)cc3)CC2)C(=O)O)cc1 [Example 93] ?
*A* 44

###

Assign IC50 to each entry below.
- tgt: human fibrinogen (Homo sapiens, UniProt P05106+P08514)
- Construct: centrifuged at 11000 rpm for two minutes to give human platelet
- Sequence (P08514 32-887 limits assumed): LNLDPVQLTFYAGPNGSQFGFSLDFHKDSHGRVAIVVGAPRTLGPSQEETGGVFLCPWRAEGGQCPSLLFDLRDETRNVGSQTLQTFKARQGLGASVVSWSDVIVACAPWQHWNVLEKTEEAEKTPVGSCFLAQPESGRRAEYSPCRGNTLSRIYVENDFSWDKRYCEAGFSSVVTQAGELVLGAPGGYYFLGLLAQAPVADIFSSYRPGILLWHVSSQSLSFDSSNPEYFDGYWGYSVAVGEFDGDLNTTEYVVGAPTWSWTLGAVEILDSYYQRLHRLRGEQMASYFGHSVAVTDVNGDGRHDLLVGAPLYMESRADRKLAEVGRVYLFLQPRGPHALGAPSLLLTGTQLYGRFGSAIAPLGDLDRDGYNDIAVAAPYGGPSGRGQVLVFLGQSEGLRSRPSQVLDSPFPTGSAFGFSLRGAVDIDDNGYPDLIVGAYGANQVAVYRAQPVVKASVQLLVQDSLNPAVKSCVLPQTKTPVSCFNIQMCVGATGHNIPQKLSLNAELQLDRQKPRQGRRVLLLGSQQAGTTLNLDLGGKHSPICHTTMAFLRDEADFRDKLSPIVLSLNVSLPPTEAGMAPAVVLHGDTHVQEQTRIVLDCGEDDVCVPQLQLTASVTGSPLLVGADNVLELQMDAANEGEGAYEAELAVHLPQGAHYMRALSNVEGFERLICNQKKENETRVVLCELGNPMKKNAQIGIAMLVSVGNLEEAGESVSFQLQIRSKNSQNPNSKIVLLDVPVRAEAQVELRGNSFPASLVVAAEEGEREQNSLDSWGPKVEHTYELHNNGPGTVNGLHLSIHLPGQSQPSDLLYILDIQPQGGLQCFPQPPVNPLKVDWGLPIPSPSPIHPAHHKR
- Sequence (P08514 891-1039 limits assumed): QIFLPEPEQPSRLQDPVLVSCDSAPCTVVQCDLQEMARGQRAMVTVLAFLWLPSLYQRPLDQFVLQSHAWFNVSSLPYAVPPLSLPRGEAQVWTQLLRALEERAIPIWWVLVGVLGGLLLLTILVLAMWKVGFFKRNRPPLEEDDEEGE
- Sequence (P05106 27-788): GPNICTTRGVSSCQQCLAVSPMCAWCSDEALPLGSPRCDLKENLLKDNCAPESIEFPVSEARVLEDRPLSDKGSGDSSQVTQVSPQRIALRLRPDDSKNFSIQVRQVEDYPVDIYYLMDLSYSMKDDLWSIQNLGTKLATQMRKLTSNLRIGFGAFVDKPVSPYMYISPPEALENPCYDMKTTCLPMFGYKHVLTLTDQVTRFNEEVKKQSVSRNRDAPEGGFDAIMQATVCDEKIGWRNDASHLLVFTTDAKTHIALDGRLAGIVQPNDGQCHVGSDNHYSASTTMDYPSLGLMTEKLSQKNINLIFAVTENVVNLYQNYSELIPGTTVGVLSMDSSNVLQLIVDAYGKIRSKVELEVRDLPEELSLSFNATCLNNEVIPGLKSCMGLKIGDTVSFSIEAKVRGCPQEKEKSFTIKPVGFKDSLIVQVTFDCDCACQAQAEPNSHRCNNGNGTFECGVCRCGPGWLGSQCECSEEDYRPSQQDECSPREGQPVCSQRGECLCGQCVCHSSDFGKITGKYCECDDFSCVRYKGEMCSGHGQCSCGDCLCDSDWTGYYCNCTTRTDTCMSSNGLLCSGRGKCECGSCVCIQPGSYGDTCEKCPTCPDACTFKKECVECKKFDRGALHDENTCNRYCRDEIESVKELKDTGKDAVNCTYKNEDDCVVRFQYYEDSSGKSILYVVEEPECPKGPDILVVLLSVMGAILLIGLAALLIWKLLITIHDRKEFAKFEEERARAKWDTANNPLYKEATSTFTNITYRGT
- assay protocol: Binding assay of platelet to adhesive protein: fibrinogen (receptor binding inhibition)
- cond: Table 4; fixed activated human platelets, 37° C., 60 minutes
One number for each entry, in nM.

Hi, could you look up IC50 for each item in my list?
1. COc1ccc(S(=O)(=O)N[C@@H](CNC(=O)CCNC(=O)c2ccc(C(=N)N)cc2)C(=O)O)cc1
2. N=C(N)c1ccc(C(=O)NCCC(=O)NC[C@H](NS(=O)(=O)c2ccccc2[N+](=O)[O-])C(=O)O)cc1
3. COc1ccc(S(=O)(=O)N[C@@H](CNC(=O)CCCOc2ccc(C(=N)N)cc2)C(=O)O)cc1

*A*
[7.3, 6.7, 7.1]

Quick one: give me IC50 for each item below, same order please.
1. COc1ccc(S(=O)(=O)N[C@@H](CNC(=O)Cc2ccc(-c3ccc(C(=N)N)cc3)cc2)C(=O)O)cc1
2. Cc1ccccc1S(=O)(=O)N[C@@H](CNC(=O)CCNC(=O)c1ccc(C(=N)N)cc1)C(=O)O

*A*
1: 12; 2: 22
